Biological target: UniProt:P03372
Sequence (P03372 whole entry): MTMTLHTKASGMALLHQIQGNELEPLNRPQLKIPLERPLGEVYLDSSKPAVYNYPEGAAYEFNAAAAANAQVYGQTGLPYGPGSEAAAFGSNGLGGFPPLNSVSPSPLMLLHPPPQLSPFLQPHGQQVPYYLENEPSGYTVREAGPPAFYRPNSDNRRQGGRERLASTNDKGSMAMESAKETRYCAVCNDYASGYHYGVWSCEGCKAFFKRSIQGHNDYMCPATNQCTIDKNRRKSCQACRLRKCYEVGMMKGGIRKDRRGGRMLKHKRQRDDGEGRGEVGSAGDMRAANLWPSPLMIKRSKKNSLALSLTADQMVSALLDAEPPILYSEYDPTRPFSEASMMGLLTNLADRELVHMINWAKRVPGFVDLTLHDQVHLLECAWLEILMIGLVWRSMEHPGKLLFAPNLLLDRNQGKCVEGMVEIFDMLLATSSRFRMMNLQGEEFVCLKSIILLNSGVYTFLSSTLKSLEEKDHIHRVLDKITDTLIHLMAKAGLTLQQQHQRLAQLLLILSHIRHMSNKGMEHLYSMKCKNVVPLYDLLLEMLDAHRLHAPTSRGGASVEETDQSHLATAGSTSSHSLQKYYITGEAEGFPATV
Test: Fluorescence polarization assay: displacement of rhodamine-labeled peptide D22 from estradiol-activated ER
Format: binding
Set-up: purchased Invitrogen
Conditions: ERα 75 nM, 17β-estradiol 2 μM, D22 1 nM; standard deviation in brackets
pKi: −log10 of the molar value.
Below: a set of entries, each annotated with reported pKi.

structure.notation	lt.gt.eq	pKi
CC(C)Cc1cc(O)c(=O)n(CCc2ccccc2)c1-c1ccnc(Cc2ccccc2)c1	=	5.19
CC(C)CCn1c(-c2ccnc(CC(C)C)c2)c(CC(C)C)cc(O)c1=O	=	4.80
CC(C)Cc1cc(-c2c(CC(C)C)cc(O)c(=O)n2CCC(C)(C)C)ccn1	<	4.30
CC(C)Cc1cc(O)c(=O)n(CCC(C)(C)C)c1-c1ccnc(C(C)(C)C)c1	<	4.30
CC(C)Cc1cc(-c2c(CC(C)C)cc(O)c(=O)n2CCc2ccccc2)ccn1	=	5.03
CC(C)Cc1cc(O)c(=O)n(CCc2ccc3ccccc3c2)c1-c1ccnc(Cc2ccccc2)c1	=	5.38
